assay: UV-pH titration, pKa in aqueous medium (SiriusT3 fast UV pKa method); conditions: ionic strength adjusted water (0.15 M KCl), without HSA, Exp. aqueous pKa1 (pKa of monoprotic APIs), absence of HSA, ISA-water 0.15 M KCl, 25.0 °C
I'd appreciate it if you could supply pKa values for the items below.
Just the number, please, no unit after it.

Problem: Identify pKa associated with the compound "O=C(O)c1cc(-c2ccc(F)cc2F)ccc1O"
Solution: 2.65

Problem: Provide only the value of recorded pKa for "CCN(CC)CCOC(=O)c1ccc(N)cc1"
Solution: 2.19

Problem: Provide measured pKa value, entry: "C#C[C@]1(O)CC[C@H]2[C@@H]3CCc4cc(O)ccc4[C@H]3CC[C@@]21C"
Solution: 10

Problem: Consider the compound "CN1C(C(=O)Nc2ccccn2)=C(O)c2sc(Cl)cc2S1(=O)=O" . State its measured pKa.
Solution: 0.55

Problem: Return pKa (reported value) for this compound: "CO/N=C(\C(=O)N[C@@H]1C(=O)N2C(C(=O)O)=C(COC(N)=O)CS[C@H]12)c1ccco1"
Solution: 2.07

Problem: Give the measured pKa for "NNC(=O)c1ccncc1"
Solution: 3.65

Problem: Determine its reported pKa: CC1=C(CC(=O)O)c2cc(F)ccc2/C1=C\c1ccc([S+](C)[O-])cc1 (centres unmarked)
Solution: 3.94

Problem: State, in one line, measured pKa of "CN(C)CCCN1c2ccccc2CCc2ccccc21"
Solution: 9.6

* * *

biological target: human serum albumin (HSA) (Homo sapiens); assay: HSA binding by rapid equilibrium dialysis (RED); format: in vitro ADME; parameters: Albumin from human serum (lyophilized powder); purchased Sigma-Aldrich Co., Ltd. (Budapest, Hungary) A9511; host or cells: human serum (natural source); settings: 10 µM compound, 4 g/L HSA in PBS pH 7.4, 37 °C, 4.5 hours
Sequence (P02768 25-609): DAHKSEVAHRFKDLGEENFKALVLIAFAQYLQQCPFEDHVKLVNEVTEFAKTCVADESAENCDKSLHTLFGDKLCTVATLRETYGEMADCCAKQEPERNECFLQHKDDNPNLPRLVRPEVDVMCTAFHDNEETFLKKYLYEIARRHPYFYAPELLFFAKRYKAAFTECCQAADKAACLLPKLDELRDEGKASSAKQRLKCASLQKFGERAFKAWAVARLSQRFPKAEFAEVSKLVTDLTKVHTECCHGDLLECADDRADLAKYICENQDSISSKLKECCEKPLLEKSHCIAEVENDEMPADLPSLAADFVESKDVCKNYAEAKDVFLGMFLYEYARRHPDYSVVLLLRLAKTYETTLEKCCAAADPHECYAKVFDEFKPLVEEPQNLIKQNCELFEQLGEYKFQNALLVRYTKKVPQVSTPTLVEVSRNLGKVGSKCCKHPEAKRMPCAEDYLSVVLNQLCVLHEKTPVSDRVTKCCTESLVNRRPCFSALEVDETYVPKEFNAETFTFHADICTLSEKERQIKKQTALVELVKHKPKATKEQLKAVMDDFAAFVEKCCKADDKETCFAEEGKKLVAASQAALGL
measuredProperty: HSA% (RED)
Give me the value, and tack the unit on after it.

Problem: Quote HSA% (RED) with test system human serum albumin (HSA) (Homo sapiens) for CN1C(C(=O)Nc2ccccn2)=C(O)c2sc(Cl)cc2S1(=O)=O [Lornoxicam]
Solution: 98.0 ± 0.2%

Problem: Given NC(N)=Nc1nc(CSCCC(N)=NS(N)(=O)=O)cs1 [Famotidine] , report its HSA% (RED) on human serum albumin (HSA) (Homo sapiens).
Solution: 4.4 ± 2.6%

Problem: Please respond with reported HSA% (RED) (system human serum albumin (HSA) (Homo sapiens)) for CNC(=O)Oc1ccc2c(c1)[C@]1(C)CCN(C)[C@@H]1N2C [Physostigmine] .
Solution: 9.7 ± 6.6%

Problem: State, for human serum albumin (HSA) (Homo sapiens), measured HSA% (RED) of the compound listed here: CCCCC1(C)C(=O)N(c2ccccc2)N(c2ccccc2)C1=O [C-Methyl phenylbutazone]
Solution: 64.1 ± 1.8%

Problem: # return HSA% (RED) for Cc1cnc(NC(=O)C2=C(O)c3ccccc3S(=O)(=O)N2C)s1 [Meloxicam] , test system: human serum albumin (HSA) (Homo sapiens)
Solution: 96.7 ± 0.1%

Problem: Find HSA% (RED) for COc1cc(Cc2cnc(N)nc2N)cc(OC)c1OC [Trimethoprim] on human serum albumin (HSA) (Homo sapiens) and write it down.
Solution: 3.1 ± 4.6%

Problem: Please respond with reported HSA% (RED) (system human serum albumin (HSA) (Homo sapiens)) for CCCCc1c(OC)n(-c2ccccc2)n(-c2ccccc2)c1=O [O-Methyl-phenylbutazone] .
Solution: 92.9 ± 1.9%

Origin of measurements: paper PMC7307925
